target: human full-length VWF (human, UniProt P04275 764-2813); assay: SPR, Biacore T200, antibody captured on Protein A, full-length VWF as analyte, single-cycle kinetics
Recorded measurements of koff, one per entry
Please respond with the number in s⁻¹ and leave the unit unwritten.

1-D5_H2_VL-par (antibody, human IgG1, kappa, V domains shown, also called 1-D5_H2 (hIgG1)) VH: QQQLVESGGGVVQPGRSLRLSCAASGFSLNNYIMGWVRQAPGKGLEYIGIISTGGSTYYASWAKGRFTISRDSNTMYLQMNSLRAEDTATYFCARGGSSAGAGFNIWGQGTLVTVSS VL: DIVMTQTPSSVSAAVGDTVTIQCQASQSINSGLAWYQQKPGQPPKRLIYKASTLASGVPSRFRGSGSGTDFTLTISDLECADAATYYCQSYHYISANGATFGGGTEVVVET :: 4.2e-06
4-H3_H0_VL-par (antibody, human IgG1, kappa, V domains shown, also called 4-H3_H0 (hIgG1)) VH: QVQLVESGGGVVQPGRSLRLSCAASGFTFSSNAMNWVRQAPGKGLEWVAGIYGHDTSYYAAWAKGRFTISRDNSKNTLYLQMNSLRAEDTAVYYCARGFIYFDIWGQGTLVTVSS VL: AYDMTQTPPSLSASVGETVRIRCLASEDIASGISWYQQKPGKPPTLLIYGASNLESGVPPRFSGSGSGTDYTLTIGGVQAEDAATYYCLGGYSFSSNGLTFGAGTKVEIKT :: 2.89e-07

Proceed to the following item.
Which value of koff has been reported for 1-D5_H1_VL-par (antibody, human IgG1, kappa, V domains shown, also called 1-D5_H1 (hIgG1)) VH: QVQLVESGGGVVQPGRSLRLSCAASGFSLNNYIMGWVRQAPGKGLEWVAIISTGGSTYYASWAKGRFTISRDNSKNTLYLQMNSLRAEDTAVYYCARGGSSAGAGFNIWGQGTLVTVSS VL: DIVMTQTPSSVSAAVGDTVTIQCQASQSINSGLAWYQQKPGQPPKRLIYKASTLASGVPSRFRGSGSGTDFTLTISDLECADAATYYCQSYHYISANGATFGGGTEVVVET in the records?
2.37e-08
